measuredTarget: T1, human complement protein C5 (human, UniProt P01031 19-1676)
T1 construct: Native C5 is a two-chain protein made from one precursor; also called hC5; human C5
assayComment: SPR (Biacore), pH 6.0
Provide the reported koff of each item.
The reply must contain the numeric value and, after it, the unit.

Reference set, count: 2
binder	koff
CRL0483 (bispecific antibody, anti-C5 VHH / (G4S)3 / anti-albumin VHH fusion, purified by Protein A; also called CRL0483 (C5/HSA)) EVQLVESGGGLVQPGGSLRLSCAASGRTFSGILSPYAVGWFRQAPGKGLEFVSTITSGGSAIYTDSVKGRFTISRDNAKDSLYLQMNSLRAEDTAVYYCAVRTRRYGSNLGEVPQENEYGYWGQGTLVTVSSGGGGSGGGGSGGGGSEVQLLESGGGLVQPGGSLRLSCAASGFTFRSFGMSWVRQAPGKGPEWVSSISGSGSDTLYADSVKGRFTISRDNSKNTLYLQMNSLRPEDTAVYYCTIGGSLSRSSQGTLVTVSS	0.000211 s⁻¹
CRL0499 (bispecific antibody, anti-albumin VHH / (G4S)3 / anti-C5 VHH fusion, purified by Protein A; also called CRL0499 (HSA/C5)) EVQLLESGGGLVQPGGSLRLSCAASGFTFRSFGMSWVRQAPGKGPEWVSSISGSGSDTLYADSVKGRFTISRDNSKNTLYLQMNSLRPEDTAVYYCTIGGSLSRSSQGTLVTVSSGGGGSGGGGSGGGGSEVQLVESGGGLVQPGGSLRLSCAASGRAHSDYAMAWFRQAPGQEREFVAGIGWSGGDTLYADSVRGRFTNSRDNSKNTLYLQMNSLRAEDTAVYYCAARQGQYIYSSMRSDSYDYWGQGTLVTVSS	0.00112 s⁻¹

GET /value?item= CRL0500 (bispecific antibody, anti-albumin VHH / (G4S)3 / anti-C5 VHH fusion, purified by Protein A; also called CRL0500 (HSA/C5)) EVQLVESGGGLVKPGGSLRLSCAASGRPVSNYAAAWFRQAPGKEREFVSAINWQKTATYADSVKGRFTISRDNAKNSLYLQMNSLRAEDTAVYYCAAVFRVVAPKTQYDYDYWGQGTLVTVSSGGGGSGGGGSGGGGSEVQLVESGGGLVQPGGSLRLSCAASGRAHSDYAMAWFRQAPGQEREFVAGIGWSGGDTLYADSVRGRFTNSRDNSKNTLYLQMNSLRAEDTAVYYCAARQGQYIYSSMRSDSYDYWGQGTLVTVSS &field=koff returns 0.00152 s⁻¹
